assay_target: biotinylated His-Avi-TEAD (194-411) (UniProt P28347)
measurement_protocol: SSM screen, enrichment after two rounds of sorting
value_type: enrichment score
Number only, no unit.

Known enrichment score results, listed for orientation:
> print(dat)
                                     binder  value.observed
1  GSPDEYIERAKACCKKGDIQCCLRYFEESGDPNVMLICLFCP (designed binder) [E10A variant of SEQ ID NO: 1]           -0.24
2  GSPDEYIERAKECCKHGDIQCCLRYFEESGDPNVMLICLFCP (designed binder) [K14H variant of SEQ ID NO: 1]            0.53
3  GSPDEYIERAKECCKKGDMQCCLRYFEESGDPNVMLICLFCP (designed binder) [I17M variant of SEQ ID NO: 1]           -2.95
4  GSPDEYIERAKECCKKGFIQCCLRYFEESGDPNVMLICLFCP (designed binder) [D16F variant of SEQ ID NO: 1]           -1.86
5  GSPDEYIARAKECCKKGDIQCCLRYFEESGDPNVMLICLFCP (designed binder) [E06A variant of SEQ ID NO: 1]           -0.68

Next:
IN: For GSPDEYFERAKECCKKGDIQCCLRYFEESGDPNVMLICLFCP (designed binder) [I05F variant of SEQ ID NO: 1] , write its enrichment score.
OUT: -8.36
